Tested on: Escherichia coli TOP10
Test: shrunken log2 fold change of peptide-encoding DNA abundance (4.5 h post-induction vs induction); higher = less antimicrobial activity (less host growth inhibition)
Settings: time post-induction: 4.5 h; library: site-saturation at positions 5, 18, 19, 20
Reported shrunken log2 fold change values are given for each entry in this list.
The response must contain the number and no unit.

chain_sequence=RRIRVRPPRLPRPRPRPKPAPRP result=0.431
chain_sequence=RRIRERPPRLPRPRPRPQCWPRP result=-0.0051
chain_sequence=RRIRKRPPRLPRPRPRPDRDPRP result=0.00592
chain_sequence=RRIRNRPPRLPRPRPRPTQQPRP result=0.244
chain_sequence=RRIRLRPPRLPRPRPRPMKSPRP result=0.00719
chain_sequence=RRIRVRPPRLPRPRPRPWVHPRP result=-0.306
chain_sequence=RRIRPRPPRLPRPRPRPETTPRP result=-0.0108
chain_sequence=RRIRVRPPRLPRPRPRPLGGPRP result=0.27

Q: # lookup: shrunken log2 fold change of RRIRYRPPRLPRPRPRPLNGPRP
A: -0.159

Q: Continue with RRIRVRPPRLPRPRPRPAAFPRP
A: 0.227

Q: Continue with RRIRYRPPRLPRPRPRPKLNPRP
A: -0.689

Q: Continue with RRIRHRPPRLPRPRPRPFWYPRP
A: -0.167

Q: Continue with RRIRARPPRLPRPRPRPQMKPRP
A: 0.433

---

Tested on: Escherichia coli TOP10
Assay: shrunken log2 fold change of peptide-encoding DNA abundance (4.5 h post-induction vs induction); higher = less antimicrobial activity (less host growth inhibition)
Conditions: time post-induction: 4.5 h; library: site-saturation at positions 5, 18, 19, 20
Property Name: shrunken log2 fold change
The response must contain the number and no unit.

chain_sequence=RRIRQRPPRLPRPRPRPNFKPRP assayed_target="Escherichia coli TOP10" result=-0.235
chain_sequence=RRIRERPPRLPRPRPRPNYMPRP assayed_target="Escherichia coli TOP10" result=-0.667
chain_sequence=RRIRPRPPRLPRPRPRPLGYPRP assayed_target="Escherichia coli TOP10" result=-0.0805
chain_sequence=RRIRRRPPRLPRPRPRPRRFPRP assayed_target="Escherichia coli TOP10" result=0.352
chain_sequence=RRIRGRPPRLPRPRPRPQPIPRP assayed_target="Escherichia coli TOP10" result=0.114

Q: # lookup: shrunken log2 fold change of RRIRLRPPRLPRPRPRPSDIPRP
A: -0.0623

Q: Continue with RRIRHRPPRLPRPRPRPDILPRP
A: -0.0904

---

System: Escherichia coli TOP10;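 note: peptides expressed intracellularly from a pBAD plasmid library in pooled LB shake-flask culture, induced with 0.3% L-arabinose, DNA abundance read by NGS, three biological replicates, DESeq2 with apeglm shrinkage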
Assay: shrunken log2 fold change of peptide-encoding DNA abundance (4.5 h post-induction vs induction); higher = less antimicrobial activity (less host growth inhibition)
Conditions: time post-induction: 4.5 h; library: site-saturation at positions 5, 18, 19, 20
Property Name: shrunken log2 fold change
The response must contain the number and no unit.

Record excerpt, results attached:
chain_sequence=RRIRARPPRLPRPRPRPLLAPRP assayed_target="Escherichia coli TOP10" result=0.949
chain_sequence=RRIRGRPPRLPRPRPRPFMHPRP assayed_target="Escherichia coli TOP10" result=0.416
chain_sequence=RRIRFRPPRLPRPRPRPKWRPRP assayed_target="Escherichia coli TOP10" result=0.413
chain_sequence=RRIRNRPPRLPRPRPRPVTFPRP assayed_target="Escherichia coli TOP10" result=-0.356
chain_sequence=RRIRERPPRLPRPRPRPIPNPRP assayed_target="Escherichia coli TOP10" result=-0.135
chain_sequence=RRIRKRPPRLPRPRPRPTVCPRP assayed_target="Escherichia coli TOP10" result=0.765

Q: # lookup: shrunken log2 fold change of RRIRMRPPRLPRPRPRPFVCPRP
A: 0.137

Q: Continue with RRIRTRPPRLPRPRPRPPAAPRP
A: 0.353

Q: Continue with RRIRFRPPRLPRPRPRPCAGPRP
A: -0.177

Q: Continue with RRIRYRPPRLPRPRPRPGGVPRP
A: -0.332

Q: Continue with RRIRCRPPRLPRPRPRPWGFPRP
A: 0.248

Q: Continue with RRIRNRPPRLPRPRPRPQNLPRP
A: -0.266

Q: Continue with RRIRTRPPRLPRPRPRPHMEPRP
A: 0.0103

Source listed as the supplement of paper PMC9112550.
